Where do the numbers come from? From patent US20200140562A1.

In this section, each of the binders is paired with its reported pKd.
# system: T1, human OX40_Fc (R&D Systems) (human, UniProt P43489 29-216)
# T1 construct: Bought
# T1 sequence (P43489 29-216): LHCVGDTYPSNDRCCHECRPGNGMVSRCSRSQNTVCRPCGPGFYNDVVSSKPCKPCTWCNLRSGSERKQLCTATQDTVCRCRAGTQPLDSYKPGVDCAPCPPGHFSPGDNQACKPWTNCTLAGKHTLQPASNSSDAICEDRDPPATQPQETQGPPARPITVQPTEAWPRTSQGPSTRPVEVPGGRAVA
# protocol notes: BLI, IgG1 on tip, hOX40-Fc 50 nM, avid
Answer as the number alone; pKd is minus log10 of concentration in mol/L.

[[record]]
binder = "ADI-25653, IgG1 format (antibody, V domains shown, Made in yeast) VH: QVQLVESGGGVVQPGRSLRLSCAASGFTFVSYNMHWVRQAPGKGLEWVAVIMYDGSAKYYADSVKGRFTISRDNSKNTLYLQMNSLRAEDTAVYYCARGRPWYSETGTSAFDIWGQGTMVTVSS VL: DIQMTQSPSSLSASVGDRVTITCQASQDISNYLNWYQQKPGKAPKLLIYDASNLETGVPSRFSGSGSGTDFTFTISSLQPEDIATYYCQQSDHYPTFGGGTKVEIKR"
test_result = 9.65

[[record]]
binder = "ADI-25654, IgG1 format (antibody, V domains shown, Made in yeast or CHO cells; also called ADI-25654-g1) VH: QVQLVESGGGVVQPGRSLRLSCAASGFTFRSYDMHWVRQAPGKGLEWVAYIAYDGSNKYYADSVKGRFTISRDNSKNTLYLQMNSLRAEDTAVYYCARGRPWYSETGTSAFDIWGQGTMVTVSS VL: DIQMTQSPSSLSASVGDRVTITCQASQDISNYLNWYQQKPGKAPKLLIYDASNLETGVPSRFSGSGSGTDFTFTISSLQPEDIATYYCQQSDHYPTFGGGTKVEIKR"
test_result = 9.55

[[record]]
binder = "ADI-23519, IgG1 format (antibody, V domains shown, Made in yeast) VH: QVQLQESGPGLVKPSQTLSLTCTVSGGSISSGSSYWSWIRQHPGKGLEWIGYIYMSGETYYNPSLKSRVTISVDTSKNQFSLKLSSVTAADTAVYYCARDVGYPHYYGMDVWGQGTTVTVSS VL: EIVLTQSPGTLSLSPGERATLSCRASQSVSSSYLAWYQQKPGQAPRLLIYGASSRATGIPDRFSGSGSGTDFTLTISRLEPEDFAVYYCQQSERSPFTFGGGTKVEIKR"
test_result = 9.59

[[record]]
binder = "ADI-23518, IgG1 format (antibody, V domains shown, Made in yeast) VH: QVQLQESGPGLVKPSQTLSLTCTVSGGSISSGASYWSWIRQHPGKGLEWIGYIYYSGETYYNPSLKSRVTISVDTSKNQFSLKLSSVTAADTAVYYCARDVGYPHYYGMDVWGQGTTVTVSS VL: EIVLTQSPGTLSLSPGERATLSCRASQSVSSSYLAWYQQKPGQAPRLLIYGASSRATGIPDRFSGSGSGTDFTLTISRLEPEDFAVYYCQQSERSPFTFGGGTKVEIKR"
test_result = 9.53

[[record]]
binder = "ADI-25651, IgG1 format (antibody, V domains shown, Made in yeast) VH: QVQLVESGGGVVQPGRSLRLSCAASGFTFSSRNMHWVRQAPGKGLEWVAVIAYDGSLKYYADSVKGRFTISRDNSKNTLYLQMNSLRAEDTAVYYCARGRPWYSETGTSAFDIWGQGTMVTVSS VL: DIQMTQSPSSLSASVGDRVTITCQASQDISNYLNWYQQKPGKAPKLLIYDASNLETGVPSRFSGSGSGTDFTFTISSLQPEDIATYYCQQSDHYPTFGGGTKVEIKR"
test_result = 9.57

[[record]]
binder = "ADI-25652, IgG1 format (antibody, V domains shown, Made in yeast) VH: QVQLVESGGGVVQPGRSLRLSCAASGFTFVSYNMHWVRQAPGKGLEWVAVIAYDGSVKYYADSVKGRFTISRDNSKNTLYLQMNSLRAEDTAVYYCARGRPWYSETGTSAFDIWGQGTMVTVSS VL: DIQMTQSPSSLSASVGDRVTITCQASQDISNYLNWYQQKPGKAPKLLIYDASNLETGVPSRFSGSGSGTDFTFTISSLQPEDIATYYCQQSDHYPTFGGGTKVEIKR"
test_result = 9.58


Then this binder:
IN: Recorded pKd for ADI-25650, IgG1 format (antibody, V domains shown, Made in yeast) VH: QVQLVESGGGVVQPGRSLRLSCAASGFTFSVYNMHWVRQAPGKGLEWVAVIAYDGSAKYYADSVKGRFTISRDNSKNTLYLQMNSLRAEDTAVYYCARGRPWYSETGTSAFDIWGQGTMVTVSS VL: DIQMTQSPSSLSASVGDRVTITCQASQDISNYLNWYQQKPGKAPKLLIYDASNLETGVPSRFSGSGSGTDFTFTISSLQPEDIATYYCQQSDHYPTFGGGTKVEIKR , please?
OUT: 9.64
